- Tested on: Vaccinia virus Lederle strain
- TEST DETAILS: microbe, parasite or virus in culture
- Format: cell-based
- EXPERIMENTAL CONTEXT: Orthopoxvirus vaccinia, Fibroblast, read-out: EC50 Vaccinia virus Lederle
QUANTITY MEASURED: pEC50
Answers are plain numbers, as −log10 of the molar value.

Measured pEC50, O=c1[nH]c(=O)n([C@H]2C[C@H](O)[C@@H](CO)O2)cc1/C=C/Br [Brivudin, reference compound] : 4.82

----------
- Test system: HEL cells
- TEST DETAILS: Cytotoxicity in HEL cells: cell morphology
- Format: cell-based, human
- EXPERIMENTAL CONTEXT: microscopically detectable alteration of cell morphology
Give Cytotoxicity in HEL cells, cell morphology, MCC (minimum cytotoxic concentration) for every item shown.

[[record]]
molecule = "CCCCCCCCCCCCCCCCOCCCOP1(=O)CO[C@@H](Cn2cnc3c(=O)[nH]c(N)nc32)CO1 (stereo partly shown) [Compound 18]"
value = "≥171.3 μM"

[[record]]
molecule = "CCCCCCCCCCCCCCCCOCCCOP(=O)(CCOCCn1cnc2c(=O)[nH]cnc21)OCCCOCCCCCCCCCCCCCCCC [Compound 3]"
value = "≥117 μM"

[[record]]
molecule = "Nc1nc2c(ncn2COCCO)c(=O)[nH]1 [Acyclovir, reference compound]"
value = ">444 μM"

[[record]]
molecule = "CCCCCCCCCCCCCCCCOCCCOP1(=O)CO[C@@H](Cn2cnc3c(=O)[nH]cnc32)CO1 (stereo partly shown) [Compound 17]"
value = "≥7 μM"

[[record]]
molecule = "Nc1nc(O)c2ncn(COC(CO)CO)c2n1 [Ganciclovir, reference compound]"
value = ">394 μM"


Please state Cytotoxicity in HEL cells, cell morphology, MCC (minimum cytotoxic concentration) for every molecule in the list that follows.
1. Nc1ccn(C[C@@H](CO)OCP(=O)(O)O)c(=O)n1.O.O [Cidofovir, reference compound]
2. Nc1nc2c(ncn2C[C@H]2COP(=O)(O)CO2)c(=O)[nH]1 [(S)-cHPMPG, reference compound]
3. CCCCCCCCCCCCCCCCOCCCOP(=O)(O)CO[C@H](CO)Cn1cnc2c(=O)[nH]cnc21 [Compound 15]
4. CCCCCCCCCCCCCCCCOCCCOP(=O)(O)CO[C@H](CO)Cn1cnc2c(=O)[nH]c(N)nc21 [Compound 16]
5. CCCCCCCCCCCCCCCCOCCCOP(=O)(CO[C@H](CO)Cn1cnc2c(=O)[nH]c(N)nc21)OCCCOCCCCCCCCCCCCCCCC [Compound 14]
6. O=c1[nH]c(=O)n([C@H]2C[C@H](O)[C@@H](CO)O2)cc1/C=C/Br [Brivudin, reference compound]

Completion:
1. >317 μM
2. >100 μM
3. ≥34 μM
4. ≥1.3 μM
5. ≥22.6 μM
6. >300 μM

Please state Cytotoxicity in HEL cells, cell morphology, MCC (minimum cytotoxic concentration) for every molecule in the list that follows.
1. CCCCCCCCCCCCCCCCOCCCOP(=O)(CO[C@H](CO)Cn1cnc2c(=O)[nH]cnc21)OCCCOCCCCCCCCCCCCCCCC [Compound 13]
2. Nc1nc2c(ncn2C[C@@H](CO)OCP(=O)(O)O)c(=O)[nH]1 [(S)-HPMPG, reference compound]

Completion:
1. ≥23 μM
2. >100 μM
